Each entry below lists one item and its recorded t1/2 value.
- TARGET_OF_ASSAY: T1, monkey GFRα3 expressed with a C-terminal myc-myc-hexahistidine tag (monkey (Mf), UniProt O60609 32-374 (human entry), limits assumed)
- T1 construct: also called MfGFRα3-mmh; MfGFRα3-mmH
- T1 chain: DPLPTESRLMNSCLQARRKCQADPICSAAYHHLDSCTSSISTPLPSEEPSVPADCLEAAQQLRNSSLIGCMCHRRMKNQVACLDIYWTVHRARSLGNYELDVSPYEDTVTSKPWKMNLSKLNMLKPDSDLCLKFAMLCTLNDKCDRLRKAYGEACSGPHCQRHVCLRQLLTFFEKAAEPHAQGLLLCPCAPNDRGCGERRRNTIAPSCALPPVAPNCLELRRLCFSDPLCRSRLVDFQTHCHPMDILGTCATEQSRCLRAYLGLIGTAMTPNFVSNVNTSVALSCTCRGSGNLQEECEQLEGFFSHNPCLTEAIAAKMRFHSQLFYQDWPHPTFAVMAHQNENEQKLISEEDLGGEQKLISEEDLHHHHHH
- METHOD_NOTES: SPR, Ab captured, 25C
- Text: […]
MEASUREMENT_NAME: t1/2

binder="H4H2352S (antibody, human IgG4, V domains shown, human IgG4 Fc (H4H); also called H4H2352S-1) VH: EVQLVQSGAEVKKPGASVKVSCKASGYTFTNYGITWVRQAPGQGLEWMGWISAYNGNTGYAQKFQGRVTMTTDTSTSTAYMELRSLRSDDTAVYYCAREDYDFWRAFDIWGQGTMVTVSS VL: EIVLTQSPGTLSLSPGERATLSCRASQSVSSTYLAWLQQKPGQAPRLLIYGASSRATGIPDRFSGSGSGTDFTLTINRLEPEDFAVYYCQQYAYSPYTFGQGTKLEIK" measurement_name=t1/2 reading="192 h"
binder="H4H2344S (antibody, human IgG4, V domains shown, human IgG4 Fc (H4H)) VH: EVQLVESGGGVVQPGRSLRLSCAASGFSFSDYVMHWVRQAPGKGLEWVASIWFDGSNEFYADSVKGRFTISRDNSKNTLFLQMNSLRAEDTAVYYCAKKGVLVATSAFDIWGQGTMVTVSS VL: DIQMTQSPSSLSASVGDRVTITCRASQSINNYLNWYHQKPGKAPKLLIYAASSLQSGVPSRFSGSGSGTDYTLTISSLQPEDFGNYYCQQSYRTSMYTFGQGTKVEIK" measurement_name=t1/2 reading="1.68 h"
binder="H4H2293P (antibody, human IgG4, V domains shown, human IgG4 Fc (H4H)) VH: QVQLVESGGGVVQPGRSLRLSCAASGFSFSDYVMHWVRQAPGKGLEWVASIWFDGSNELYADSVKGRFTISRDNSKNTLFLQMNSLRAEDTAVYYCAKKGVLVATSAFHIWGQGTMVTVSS VL: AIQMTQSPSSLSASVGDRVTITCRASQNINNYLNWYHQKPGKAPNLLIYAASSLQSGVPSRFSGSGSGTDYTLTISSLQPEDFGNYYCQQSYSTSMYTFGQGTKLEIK" measurement_name=t1/2 reading="4.62 h"

Recorded values, source patent US20140056903A1.
